The values you see were collected from patent US11883387B2.

Assay: Kinetic Turbidimetric Aqueous Solubility at room temperature for 5 min
Format: physicochemical
Conditions: PBS buffer, kinetic from dmso stock, 2% DMSO
Record form. Attribute: solubility at 5 min. Fill in for each entry.

# solubility at 5 min lookup, item FC(F)(F)c1cc(NCc2nc(-c3ccc(Oc4ccccc4)cc3)cs2)ccn1 [Compound 079] > 25 µM

I would be grateful if you could share the reported solubility at 5 min for Fc1cc2nc(CSc3ccnc(C(F)(F)F)c3)[nH]c2cc1Cl [Compound 180] . > 50 µM

Can you share its solubility at 5 min? I mean this compound: COc1ccc(-c2ncc(CNc3ccnc(C#N)c3)s2)cc1Cl [Compound 077] > 10 µM

Look up solubility at 5 min: FC(F)(F)c1cc(OCc2nc3cc(Oc4ccccc4)ccc3[nH]2)ccn1 [Compound 177] > 25 µM

// solubility at 5 min lookup, key: FC(F)(F)c1cc(SCc2ccc(-c3ccc(Cl)cc3)cn2)ccn1 [Compound 111] > 10 µM

* * *

Biological target: PqsR (Pseudomonas aeruginosa)
Sequence (Q9I4X0 whole entry): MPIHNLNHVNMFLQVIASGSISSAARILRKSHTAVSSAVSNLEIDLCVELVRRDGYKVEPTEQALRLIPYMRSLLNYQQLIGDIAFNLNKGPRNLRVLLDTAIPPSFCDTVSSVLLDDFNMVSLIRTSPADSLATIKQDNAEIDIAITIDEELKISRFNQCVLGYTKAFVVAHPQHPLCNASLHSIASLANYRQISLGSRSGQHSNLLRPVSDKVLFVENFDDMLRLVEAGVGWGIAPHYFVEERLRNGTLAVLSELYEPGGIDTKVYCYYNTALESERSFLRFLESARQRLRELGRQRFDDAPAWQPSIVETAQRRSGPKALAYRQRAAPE
Experiment: E. coli based β-galactosidase reporter gene assay (PqsR inverse agonistic activity)
Assay type: cell-based
Design: expressed in transfected cells; host or cells: Escherichia coli DH5α
ATTRIBUTE MEASURED: IC50

Requested read-out: IC50. Entry: FC(F)(F)c1cc(SCc2cn(-c3cccc(Cl)c3)nn2)ccn1 251 to 1000 nM

For the molecule shown here, O=C(c1cccc(-c2nc(CNc3ccnc(C(F)(F)F)c3)cs2)c1)C1CC1 , give the reported IC50. 251 to 1000 nM

// IC50 lookup, key: FC(F)(F)c1cc(NCc2cn(-c3ccc(Oc4ccccc4)cc3)nn2)cc(Cl)n1 ≤ 50 nM

Returns the measured IC50 for the input molecule. Input: Nc1cc(SCc2nc3cc(Cl)c(Cl)cc3[nH]2)nc(C(F)(F)F)n1 51 to 250 nM

// IC50 lookup, key: FC(F)(F)c1cc(NCc2csc(-c3cccc(Oc4ccccc4)c3)n2)ccn1 51 to 250 nM

Need IC50, item CC(C)Oc1ccc(-n2cc(CNc3cc(C#N)nc(C(F)(F)F)c3)nn2)cc1Cl ≤ 50 nM

Requested read-out: IC50. Entry: Fc1ccc(Oc2ccc(-c3nc(CNc4ccnc(C(F)(F)F)c4)cs3)cc2)cc1 ≤ 50 nM

What does the data say about its IC50? Entry: FC(F)(F)c1cc(NCc2cc(-c3ccc(Oc4ccccc4)cc3)no2)ccn1 ≤ 50 nM

Recorded IC50 of FC(F)(F)c1cc(SCc2ccc(-c3cnc(Cl)nc3)cn2)ccn1 , please. 251 to 1000 nM

Name the recorded IC50 for CSc1ccc(-n2cc(CNc3ccnc(C(F)(F)F)c3)nn2)cc1 . ≤ 50 nM

Look up IC50 for this molecule: CN(c1ccccc1)c1ccc(-n2cc(CNc3ccnc(C(F)(F)F)c3)nn2)cc1 51 to 250 nM

Query (molecule): FC(F)(F)c1cc(NCc2ccc(-c3cccc(Oc4ccccc4)c3)cn2)ccn1 ; field requested: IC50 251 to 1000 nM

IC50 for COc1ccc(-c2ncc(CNc3ccnc(C(F)(F)F)c3)s2)cc1C ? 51 to 250 nM

Would you mind telling me what IC50 value was observed for FC(F)(F)c1cc(SCc2ccc(-c3ccc(Oc4ccccc4)nc3)cn2)ccn1 ? 51 to 250 nM

# input molecule: FC(F)(F)c1cc(SCc2cn(-c3ccc(Cl)cc3)nn2)ccn1 ; wanted: its IC50 251 to 1000 nM

Which measured IC50 value corresponds to Fc1ccc(-n2cc(CNc3ccnc(C(F)(F)F)c3)nn2)cc1Cl ? 251 to 1000 nM

Record request: IC50 value, item FC(F)(F)c1cc(NCc2cn(-c3ccc(Cc4ccncc4)cc3)nn2)ccn1 ≤ 50 nM

Dear colleague, I am looking for the recorded IC50 of the following molecule: FC(F)(F)c1cc(NCc2cnc(-c3ccc(Cl)nc3)s2)ccn1 51 to 250 nM

I have this molecule here, FC(F)(F)c1cc(SCc2ccc(-c3ccc(Oc4ccccc4)cc3)cn2)ccn1 , and I need its recorded IC50. 251 to 1000 nM

I would be grateful if you could share the reported IC50 for FC(F)(F)c1cc(NCc2ccc(-c3cnc(Cl)c(Cl)c3)cn2)ccn1 . 51 to 250 nM

For the molecule shown here, FC(F)(F)c1cc(NCc2cnc(-c3ccc(Oc4ccccc4)cc3)s2)ccn1 , give the reported IC50. ≤ 50 nM

Fill in: IC50 of FC(F)(F)c1cc(NCc2ccc(-c3ccc(Oc4ccccc4)nc3)cn2)ccn1 is ___ 51 to 250 nM

Consider the molecule shown here: FC(F)(F)c1cc(NCc2cn(-c3ccc(OC4CC4)c(Cl)c3)nn2)ccn1 What is its recorded IC50? ≤ 50 nM

So what does the record say about IC50 for Fc1ccccc1Oc1ccc(-n2cc(CNc3ccnc(C(F)(F)F)c3)nn2)cc1 ? ≤ 50 nM

Requested read-out: IC50. Entry: CC(C)Oc1ccc(-c2ccc(CNc3ccnc(C(F)(F)F)c3)nc2)cc1Cl ≤ 50 nM

IC50 lookup needed for FC(F)(F)c1cc(NCc2cn(-c3ccc(-n4ncc5ccncc54)cc3)nn2)ccn1 , thanks. ≤ 50 nM

What IC50 value was documented for this molecule, FC(F)(F)c1cc(NCc2cc(-c3ccc(Oc4ccccc4)cc3)n[nH]2)ccn1 ? 51 to 250 nM

Which IC50 is listed for FC(F)(F)c1cc(NCc2cn(-c3ccc(-n4ncc5ccncc54)c(Cl)c3)nn2)ccn1 ? ≤ 50 nM

Request the reported IC50 associated with Fc1cc(Br)ccc1-n1cc(CNc2ccnc(C(F)(F)F)c2)nn1 51 to 250 nM

Given FC(F)(F)c1cc(SCc2ccn(-c3ccc(Cl)cc3)n2)ccn1 , state its recorded IC50. 251 to 1000 nM

Sample Oc1cc(NCc2cn(-c3ccc(Oc4ccccc4)cc3)nn2)cc(C(F)(F)F)n1 — what was its IC50? ≤ 50 nM

Quick one: IC50 of N#Cc1ccc(-c2nc(CNc3ccnc(C(F)(F)F)c3)cs2)cc1 ? 251 to 1000 nM

Which IC50 value belongs to FC(F)(F)c1cc(NCc2cn(-c3ccc(Cl)cc3)nn2)ccn1 ? 51 to 250 nM

I have this molecule here, CC(C)Oc1ccc(-c2ncc(CNc3cc(Cl)nc(Cl)c3)s2)cc1 , and I need its recorded IC50. ≤ 50 nM

Using the record for Nc1cc(SCc2nc3cc(Oc4cccc(F)c4)ccc3[nH]2)nc(C(F)(F)F)n1 , report its IC50. ≤ 50 nM

* * *

Experiment: Metabolic stability against human hepatic S9 fraction
Format: in vitro ADME
Conditions: pooled human liver S9 fraction; 1 μM compound, 1 mg/mL pooled human liver S9, phase I and II cofactors, 37° C.; read-out: half-life (t1/2) towards human hepatic S9 fraction
Experimental: For the evaluation of combined phase I and phase II metabolic stability, the compound (1 μM) was incubated with 1 mg/mL pooled human liver S9 fraction (BD Gentest), 2 mM NADPH regenerating system, 1 mM UDPGA, 10 mM MgCl2 and 0.1 mM PAPS at 37° C. for 0, 5, 15, 30 and 60 min. The metabolic stability of Testosterone (1 μM) and 7-hydroxycoumarin (1 μM) were determined in parallel to confirm the enzymatic activity of the S9 fraction. […]
ATTRIBUTE MEASURED: half-life at 1 μM

I'd like to know its half-life at 1 μM. The molecule in question is FC(F)(F)c1cc(SCc2ccc(-c3ccc(Oc4ccccc4)nc3)cn2)ccn1 [Compound 114] > 60 min

Look up half-life at 1 μM: FC(F)(F)c1cc(SCc2cn(-c3ccc(Oc4ccccc4)cc3)nn2)ccn1 [Compound 054] > 60 min

Requested field: half-life at 1 μM. Item: COc1ccc(-n2cc(CNc3ccnc(C(F)(F)F)c3)nn2)cc1Cl [Compound 017] 41 to 60 min

Entry under review: FC(F)(F)c1cc(SCc2cnc(-c3ccc(Oc4ccccc4)cc3)s2)ccn1 [Compound 066] . Reported half-life at 1 μM? > 60 min

I have this molecule here, FC(F)(F)c1cc(NCc2csc(-c3ccc(C4CC4)cc3)n2)ccn1 [Compound 081] , and I need its recorded half-life at 1 μM. 41 to 60 min

* * *

Experiment: Kinetic Turbidimetric Aqueous Solubility at room temperature for 5 min
Assay type: physicochemical
Conditions: PBS buffer, kinetic from dmso stock, 2% DMSO
ATTRIBUTE MEASURED: solubility at 5 min

What does the record list as solubility at 5 min for Fc1cc2nc(CSc3ccnc(C(F)(F)F)c3)[nH]c2cc1F ? ≥ 100 µM

Recorded solubility at 5 min for COc1ccc(-c2ncc(CNc3cc(N)nc(C(F)(F)F)n3)s2)cc1Cl , please? > 25 µM

// query solubility at 5 min value for entry CC(C)Oc1ccc(-c2ccc(CNc3ccnc(C(F)(F)F)c3)nc2)cc1Cl > 25 µM

Which solubility at 5 min value belongs to FC(F)(F)c1cc(SCc2nc3cc(Oc4ccccc4)ccc3[nH]2)ccn1 ? > 10 µM

I have this compound here, FC(F)(F)c1cc(NCc2cnc(-c3ccc(C4CC4)cc3)nc2)ccn1 , and I need its recorded solubility at 5 min. > 10 µM
